System: CYP2B6
measurementDescription: CYP mRNA induction in cultured human hepatocytes
Assay type: in vitro ADME
reportedConditions: human, primary cultured human hepatocytes, 3.3 μM; donors AIH, EUJ, HC5-40 individually
measurementName: fold induction at 3.3 µM

Find the measured fold induction at 3.3 µM: item O=C([C@H](CO)c1ccccc1)N1CC2=C(C1)CN(S(=O)(=O)c1cnc3c(c1)OCCO3)C2 (single isomer, unassigned) [Compound 1] , target or system CYP2B6. 1.26

###

Test system: CYP2B6
measurementDescription: CYP mRNA induction in cultured human hepatocytes
Type: in vitro ADME
reportedConditions: human, primary cultured human hepatocytes, 1 μM; donors AIH, EUJ, HC5-40 individually
measurementName: fold induction at 1 µM
Please reply with the value in numeric form only.

# get_value(readout='fold induction at 1 µM', item= O=C([C@H](CO)c1ccccc1)N1CC2=C(C1)CN(S(=O)(=O)c1cnc3c(c1)OCCO3)C2 (single isomer, unassigned) ) 1
